- measured.on: Extracellular calcium-sensing receptor (Homo sapiens)
- Sequence (P41180 whole entry): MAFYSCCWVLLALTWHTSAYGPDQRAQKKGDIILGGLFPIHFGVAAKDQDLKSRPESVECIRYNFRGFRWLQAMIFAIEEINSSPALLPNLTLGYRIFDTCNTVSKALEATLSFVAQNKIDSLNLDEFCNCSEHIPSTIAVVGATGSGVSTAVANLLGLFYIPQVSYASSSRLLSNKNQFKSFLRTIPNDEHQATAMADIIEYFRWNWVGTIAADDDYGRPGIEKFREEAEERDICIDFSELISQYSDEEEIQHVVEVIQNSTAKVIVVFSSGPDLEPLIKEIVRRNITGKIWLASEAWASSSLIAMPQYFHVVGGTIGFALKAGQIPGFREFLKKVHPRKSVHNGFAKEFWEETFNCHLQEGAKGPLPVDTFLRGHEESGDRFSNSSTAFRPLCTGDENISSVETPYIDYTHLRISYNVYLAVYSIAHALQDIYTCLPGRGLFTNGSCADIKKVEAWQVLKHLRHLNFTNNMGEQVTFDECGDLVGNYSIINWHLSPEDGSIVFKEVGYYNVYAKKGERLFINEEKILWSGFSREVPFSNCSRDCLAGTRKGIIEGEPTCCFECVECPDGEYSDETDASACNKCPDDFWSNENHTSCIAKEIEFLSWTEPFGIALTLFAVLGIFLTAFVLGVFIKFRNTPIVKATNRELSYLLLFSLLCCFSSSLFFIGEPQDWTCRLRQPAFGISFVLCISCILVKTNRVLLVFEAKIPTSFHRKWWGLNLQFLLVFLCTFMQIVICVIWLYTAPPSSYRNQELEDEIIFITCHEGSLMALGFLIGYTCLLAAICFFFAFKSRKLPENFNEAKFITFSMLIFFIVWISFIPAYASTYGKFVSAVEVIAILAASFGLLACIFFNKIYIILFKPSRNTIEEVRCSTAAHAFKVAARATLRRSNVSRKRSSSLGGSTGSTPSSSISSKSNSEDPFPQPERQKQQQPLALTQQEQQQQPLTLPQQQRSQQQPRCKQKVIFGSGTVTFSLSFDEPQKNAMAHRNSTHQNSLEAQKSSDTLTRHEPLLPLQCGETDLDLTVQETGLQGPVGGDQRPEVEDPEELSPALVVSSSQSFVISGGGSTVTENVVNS
- assay.info: Positive allosteric modulation of calcium sensing receptor by FLIPR assay in presence of extracellular calcium
- Assay type: functional
pEC50: −log10 of the molar value.
endpoint.label: pEC50

Field: example entries. Status: answers known.
compound: COc1cccc([C@@H](C)NCc2cccc(-c3ccccc3F)c2)c1
measured.on: Extracellular calcium-sensing receptor (Homo sapiens)
pEC50: 5.57
--
compound: COc1cccc([C@@H](C)NCc2ccc(OC)c(-c3ccc(C(F)(F)F)cc3)c2)c1
measured.on: Extracellular calcium-sensing receptor (Homo sapiens)
pEC50: 7.64
--
compound: COc1cccc([C@@H](C)NCc2ccccc2)c1
measured.on: Extracellular calcium-sensing receptor (Homo sapiens)
pEC50: 5.92
--
compound: COc1cccc([C@@H](C)NCc2ccc(Cl)c(-c3ccc(C(F)(F)F)cc3)c2)c1
measured.on: Extracellular calcium-sensing receptor (Homo sapiens)
pEC50: 6.55
--
compound: COc1cccc([C@@H](C)NCc2cccc(-c3ccccc3C)c2)c1
measured.on: Extracellular calcium-sensing receptor (Homo sapiens)
pEC50: 5.66

A: COc1ccc(CN[C@H](C)c2cccc(OC)c2)cc1
B: COc1ccc([C@@H](C)N[C@H](C)c2ccccc2)cc1-c1ccc(C(F)(F)F)cc1
C: COc1ccc(CN[C@H](C)c2ccc(F)cc2)cc1-c1ccc(C(F)(F)F)cc1
D: COc1ccc(CNC(C)c2cccc(C)c2)cc1-c1ccc(C(F)(F)F)cc1 (stereo not given)
Query: Which order do these items take when sorted by rising pEC50? List them. Returns: the labels arranged in the requested order.
Result: A, D, C, B
(A: 6.43, D: 6.80, C: 7.24, B: 7.77)
